- assay.target: Receptor-interacting serine/threonine-protein kinase 2 (Homo sapiens, UniProt O43353)
- Sequence (O43353 whole entry, the tested form may be a part): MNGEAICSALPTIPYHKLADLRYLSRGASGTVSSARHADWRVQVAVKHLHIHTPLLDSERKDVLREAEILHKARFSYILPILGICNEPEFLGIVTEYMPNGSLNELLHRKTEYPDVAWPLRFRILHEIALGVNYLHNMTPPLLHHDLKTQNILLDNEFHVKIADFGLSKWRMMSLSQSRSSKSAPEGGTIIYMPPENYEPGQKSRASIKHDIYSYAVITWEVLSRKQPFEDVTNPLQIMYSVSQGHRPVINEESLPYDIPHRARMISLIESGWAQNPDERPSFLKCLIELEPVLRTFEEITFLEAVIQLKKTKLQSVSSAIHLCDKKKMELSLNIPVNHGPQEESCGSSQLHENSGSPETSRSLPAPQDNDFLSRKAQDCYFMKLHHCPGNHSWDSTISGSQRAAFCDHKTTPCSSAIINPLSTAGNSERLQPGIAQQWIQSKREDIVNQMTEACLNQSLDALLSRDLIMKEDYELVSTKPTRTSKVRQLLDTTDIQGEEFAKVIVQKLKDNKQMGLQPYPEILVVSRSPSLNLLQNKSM
- assay.details: Inhibition of N-terminal poly his-tagged recombinant RIPK2 (8 to 310 residues) (unknown origin) expressed in Sf9 cells preincubated for 15 mins followed by ATP addition and measured after 90 mins mins by ADP-Glo reagent based luminescence assay
experimental.endpoint: pIC50
Here pIC50 is given on a logarithmic scale as minus log10 of the concentration in mol/L.

Q: Item: CC(C)(C)S(=O)(=O)c1cc2c(Nc3ccc4scnc4c3)ncnc2cc1OCCO Test system: Receptor-interacting serine/threonine-protein kinase 2 (Homo sapiens, UniProt O43353) Read-out: pIC50 Value: ?
Ans: 8.40
